Just for reference, PubChem BioAssay (NCI) is where these values come from.

Tested on: SF-539 CNS
PROTOCOL DETAILS: NCI tumour cell line growth inhibition, 48 h
Class criterion met: TGI at least 3 µM. Class criterion not met: TGI below 3 µM.

>>> df
                                   compound              class
0    CC1(C)COC(c2cccc(C3=NC(C)(C)CO3)c2)=N1      criterion met
1  Cc1nn(-c2ccccc2)c(C)c1/C=N/NC(=O)c1sc(=S)n(-c2ccc(Cl)cc2)c1N      criterion met
2       COc1cc(/C=C\c2ccc(SC)cc2)cc(OC)c1OC  criterion not met
3  C(=N\NC1=NCCCN1)/c1ccc(-c2cn3cc(/C=N/NC4=NCCCN4)ccc3n2)cc1      criterion met
4   NC12c3c4cccc3Oc3cccc(c31)Oc1cccc(c12)O4      criterion met

*Q* Record O=C(CCN1CCCC1)Nc1ccc2c(NCCCCc3ccccc3)c3ccccc3nc2c1 ; criterion: TGI no lower than 3 µM. Met?
*A* criterion not met

*Q* Record Cc1ccccc1NC(=O)NC(CC(N)=O)c1ccc2c(c1)nc(-c1cccc(Oc3ccc(C(C)(C)C)cc3)c1)n2CCCN1CCCCC1C (stereo not given) ; criterion: TGI no lower than 3 µM. Met?
*A* criterion met

*Q* Record CC(=O)c1ccc2c(c1)CC1(C2)Cc2cc3c(cc2C1)C(=O)CC3 (stereo not given) ; criterion: TGI no lower than 3 µM. Met?
*A* criterion met

*Q* Record NS(=O)(=O)c1ccc(-n2nc(-c3ccc(Cl)cc3)cc2C2=CC(=O)C=CC2=O)cc1 ; criterion: TGI no lower than 3 µM. Met?
*A* criterion met

*Q* Record CNCCNc1nc2ccccc2c2c(=O)c3cccc(OC)c3sc12 ; criterion: TGI no lower than 3 µM. Met?
*A* criterion met
